The following binders are listed with their measured % inhibition values.
# measurement.target: T1, wild type full length EGFR purified from A431 cells (human, UniProt P00533 25-1210)
# T1 construct: mature; Bought; coated on ELISA wells; also called full length EGFR receptor antigen; Sigma E3641
# protocol.text: competition ELISA, competitor ICR10
# Parameters: concentration or dose not given beside the values
Remember to quote the unit after the number.

| binder | measured.parameter | recorded.measurement |
| --- | --- | --- |
| antibody 1257 (antibody, human IgG1, kappa, V domains shown, Chimeric IgG1 kappa) VH: EVQLQQSGPELVKPGASVKIPCKTSGYTFTDYNMAWVKQSHGKSLEWIGDIIPNNGGAIYNQKFKGKATLTVDKSSSTASMELRSLTSEDTAVYFCARKNIYYRYDGAGALDYWGQGTSVTVSS VL: QIVLTQSPAIMSASPGEKVTMTCSASSSVSYIYWYQQKPGSSPRLLIYDASNLASGVPVRFSGSGSGTSYSLTISRMEAEDAATYYCQQWSSYPITFGSGTKLEIKR | % inhibition | 78% |

Ask: Which value of % inhibition has been reported for antibody 1308 (antibody, human IgG1, kappa, V domains shown, Chimeric IgG1 kappa) VH: EVQLQQSGAELVRPGSSVKISCKASGYAFSSYWMNWVRQRPGQGLEWIGQIYPGDGDTNYNGKFKGRATLTANKSSSTAYMQLSSLTSEDSAVYFCARRASSLYDVYPYYFDYWGQGTTLTVSS VL: DIQMTQTTSSLSASLGDRVTISCRASQDISNYLNWYQQKPDGTVKVLIYYTSRLHSGVPSRFSGSGSGTDYSLTISNLEQEDIATYFCQQGNTLPYTFGGGTKLEIKR in the records?
Result: 71%
